# testedSystem: human MCH receptor 1 (MCHR1) (Homo sapiens, UniProt Q99705)
# Construct: expressed in transfected cells; host or cells: CHO cell clone 57 (membrane fraction)
# Sequence (Q99705 whole entry): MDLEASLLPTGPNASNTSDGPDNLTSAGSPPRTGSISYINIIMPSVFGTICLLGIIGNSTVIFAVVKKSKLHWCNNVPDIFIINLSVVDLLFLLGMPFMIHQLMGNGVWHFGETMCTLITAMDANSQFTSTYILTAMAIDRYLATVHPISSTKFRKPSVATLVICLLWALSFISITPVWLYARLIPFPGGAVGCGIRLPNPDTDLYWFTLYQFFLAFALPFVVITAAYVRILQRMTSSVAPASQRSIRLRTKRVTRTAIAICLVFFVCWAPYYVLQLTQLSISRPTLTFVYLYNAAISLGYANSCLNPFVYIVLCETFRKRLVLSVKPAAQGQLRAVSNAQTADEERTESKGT
# experimentalDetails: human MCH receptor 1 (MCHR1) competitive binding assay with [125I]-MCH(4-19)
# particulars: test compound 0.1 μM, human MCHR1-expressing CHO cell membrane fraction, read-out: Binding inhibition rate % (0.1 μM)
Classify as follows. Reported inhibition at 0.1 µM greater than or equal to 70%: label 1. Reported inhibition at 0.1 µM below: label 0.

[
  {
    "compound": "CCc1nc2ccc(-n3ccc(OCc4ccc(Cl)c(F)c4)cc3=O)cc2n1C",
    "testedSystem": "human MCH receptor 1 (MCHR1) (Homo sapiens, UniProt Q99705)",
    "labelValue": "label 0"
  },
  {
    "compound": "Cn1c(C2CC2)nc2ccc(-n3ccc(OCc4ccc(Cl)cc4)cc3=O)cc21",
    "testedSystem": "human MCH receptor 1 (MCHR1) (Homo sapiens, UniProt Q99705)",
    "labelValue": "label 1"
  },
  {
    "compound": "Cn1c(C2CC2)nc2ccc(-n3ccc(OCc4ccc5sccc5c4)cc3=O)cc21",
    "testedSystem": "human MCH receptor 1 (MCHR1) (Homo sapiens, UniProt Q99705)",
    "labelValue": "label 1"
  },
  {
    "compound": "Cn1c(C2CC2(F)F)nc2ccc(-n3ccc(OCc4ccc(Cl)cc4)cc3=O)cc21 (stereo not drawn)",
    "testedSystem": "human MCH receptor 1 (MCHR1) (Homo sapiens, UniProt Q99705)",
    "labelValue": "label 0"
  },
  {
    "compound": "Cn1c(C2CC2)nc2ccc(-n3ccc(OCc4ccsc4Cl)cc3=O)cc21",
    "testedSystem": "human MCH receptor 1 (MCHR1) (Homo sapiens, UniProt Q99705)",
    "labelValue": "label 0"
  },
  {
    "compound": "CCc1nc2ccc(-n3ccc(OCc4ccsc4F)cc3=O)cc2n1C",
    "testedSystem": "human MCH receptor 1 (MCHR1) (Homo sapiens, UniProt Q99705)",
    "labelValue": "label 0"
  },
  {
    "compound": "Cn1c(C2CC2)nc2ccc(-n3ccc(OCc4cc(Br)c(Cl)s4)cc3=O)cc21",
    "testedSystem": "human MCH receptor 1 (MCHR1) (Homo sapiens, UniProt Q99705)",
    "labelValue": "label 1"
  },
  {
    "compound": "Cc1c(C2CC2)nc2ccc(-n3ccc(OCc4csc(C(F)(F)F)n4)cc3=O)cn12",
    "testedSystem": "human MCH receptor 1 (MCHR1) (Homo sapiens, UniProt Q99705)",
    "labelValue": "label 0"
  },
  {
    "compound": "Cc1nc2ccc(-n3ccc(OCc4ccccc4)cc3=O)cc2n1C",
    "testedSystem": "human MCH receptor 1 (MCHR1) (Homo sapiens, UniProt Q99705)",
    "labelValue": "label 0"
  },
  {
    "compound": "Cc1cc(COc2ccn(-c3ccc4nc(C5CC5)n(C)c4c3)c(=O)c2)cs1",
    "testedSystem": "human MCH receptor 1 (MCHR1) (Homo sapiens, UniProt Q99705)",
    "labelValue": "label 1"
  },
  {
    "compound": "Cc1c(C2CC2)nc2ccc(-n3ccc(OCc4ccc(Cl)cn4)cc3=O)cn12",
    "testedSystem": "human MCH receptor 1 (MCHR1) (Homo sapiens, UniProt Q99705)",
    "labelValue": "label 1"
  },
  {
    "compound": "CCCc1nc2ccc(-n3ccc(OCc4ccc(F)cc4)cc3=O)cc2n1C",
    "testedSystem": "human MCH receptor 1 (MCHR1) (Homo sapiens, UniProt Q99705)",
    "labelValue": "label 1"
  },
  {
    "compound": "Cn1c([C@@H]2C[C@@H]2C(C)(C)O)nc2ccc(-n3ccc(OCc4ccc(F)c(F)c4)cc3=O)cc21 (racemic)",
    "testedSystem": "human MCH receptor 1 (MCHR1) (Homo sapiens, UniProt Q99705)",
    "labelValue": "label 1"
  },
  {
    "compound": "Cc1c(C2CC2)nc2ccc(-n3ccc(OCc4ccsc4)cc3=O)cn12",
    "testedSystem": "human MCH receptor 1 (MCHR1) (Homo sapiens, UniProt Q99705)",
    "labelValue": "label 1"
  },
  {
    "compound": "Cn1c([C@@H]2C[C@@H]2C(C)(C)O)nc2ccc(-n3ccc(OCc4ccc(F)c(Cl)c4)cc3=O)cc21 (racemic)",
    "testedSystem": "human MCH receptor 1 (MCHR1) (Homo sapiens, UniProt Q99705)",
    "labelValue": "label 1"
  },
  {
    "compound": "Cc1c(C2CC2)nc2ccc(-n3ccc(OCc4csc(Cl)c4)cc3=O)cn12",
    "testedSystem": "human MCH receptor 1 (MCHR1) (Homo sapiens, UniProt Q99705)",
    "labelValue": "label 1"
  },
  {
    "compound": "Cn1c(C2CC2)nc2ccc(-n3ccc(OCc4ccsc4)cc3=O)cc21",
    "testedSystem": "human MCH receptor 1 (MCHR1) (Homo sapiens, UniProt Q99705)",
    "labelValue": "label 1"
  },
  {
    "compound": "Cn1c(C2CC2)nc2ccc(-n3ccc([C@@H]4C[C@H]4c4ccc(Cl)cc4)cc3=O)cc21 (racemic)",
    "testedSystem": "human MCH receptor 1 (MCHR1) (Homo sapiens, UniProt Q99705)",
    "labelValue": "label 0"
  },
  {
    "compound": "Cc1c(C2CC2)nc2ccc(-n3ccc(OCc4cccc(F)c4)cc3=O)cn12",
    "testedSystem": "human MCH receptor 1 (MCHR1) (Homo sapiens, UniProt Q99705)",
    "labelValue": "label 1"
  },
  {
    "compound": "Cn1c(C2CCC2)nc2ccc(-n3ccc(OCc4ccc(Cl)cc4)cc3=O)cc21",
    "testedSystem": "human MCH receptor 1 (MCHR1) (Homo sapiens, UniProt Q99705)",
    "labelValue": "label 0"
  },
  {
    "compound": "CCc1nc2ccc(-n3ccc(OCc4ccc(F)cc4)cc3=O)cc2n1C",
    "testedSystem": "human MCH receptor 1 (MCHR1) (Homo sapiens, UniProt Q99705)",
    "labelValue": "label 1"
  },
  {
    "compound": "Cn1c([C@@H]2C[C@@H]2C(C)(C)O)nc2ccc(-n3ccc(OCc4ccc(F)cc4)cc3=O)cc21 (racemic)",
    "testedSystem": "human MCH receptor 1 (MCHR1) (Homo sapiens, UniProt Q99705)",
    "labelValue": "label 1"
  },
  {
    "compound": "Cn1c(C2CC2)nc2ccc(-n3ccc(OCc4cc(Br)c(F)s4)cc3=O)cc21",
    "testedSystem": "human MCH receptor 1 (MCHR1) (Homo sapiens, UniProt Q99705)",
    "labelValue": "label 1"
  },
  {
    "compound": "Cn1c(C2CC2)nc2ccc(-n3ccc(OCc4nc(C5CC5)cs4)cc3=O)cc21",
    "testedSystem": "human MCH receptor 1 (MCHR1) (Homo sapiens, UniProt Q99705)",
    "labelValue": "label 0"
  },
  {
    "compound": "Cn1c(C2CC2C(C)(C)O)nc2ccc(-n3ccc(OCc4ccc(Cl)cc4)cc3=O)cc21 (stereo not drawn)",
    "testedSystem": "human MCH receptor 1 (MCHR1) (Homo sapiens, UniProt Q99705)",
    "labelValue": "label 1"
  },
  {
    "compound": "Cn1c(CC2CC2)nc2ccc(-n3ccc(OCc4ccc(F)cc4)cc3=O)cc21",
    "testedSystem": "human MCH receptor 1 (MCHR1) (Homo sapiens, UniProt Q99705)",
    "labelValue": "label 0"
  },
  {
    "compound": "Cn1c(C2CC2)nc2ccc(-n3ccc(OCc4cc(F)c(F)s4)cc3=O)cc21",
    "testedSystem": "human MCH receptor 1 (MCHR1) (Homo sapiens, UniProt Q99705)",
    "labelValue": "label 1"
  },
  {
    "compound": "Cn1c(CC2CC2)nc2ccc(-n3ccc(OCc4ccc(Cl)cc4)cc3=O)cc21",
    "testedSystem": "human MCH receptor 1 (MCHR1) (Homo sapiens, UniProt Q99705)",
    "labelValue": "label 0"
  },
  {
    "compound": "Cn1c(-c2cnco2)nc2ccc(-n3ccc(OCc4ccc(F)cc4)cc3=O)cc21",
    "testedSystem": "human MCH receptor 1 (MCHR1) (Homo sapiens, UniProt Q99705)",
    "labelValue": "label 0"
  }
]

====

# testedSystem: human MCH receptor 1 (MCHR1) (Homo sapiens)
# Construct: expressed in transfected cells; host or cells: CHO cell clone 57 (membrane fraction)
# experimentalDetails: human MCH receptor 1 (MCHR1) competitive binding assay with [125I]-MCH(4-19)
# particulars: test compound 0.1 μM, human MCHR1-expressing CHO cell membrane fraction, read-out: Binding inhibition rate % (0.1 μM)
Counter-ions that a name gives are not always drawn.
Binary classification by inhibition at 0.1 µM, with 70% as an inclusive lower bound for met; all other cases are not met.

[
  {
    "compound": "CCCc1nc2ccc(-n3ccc(OCc4ccc(Cl)cc4)cc3=O)cc2n1C",
    "testedSystem": "human MCH receptor 1 (MCHR1) (Homo sapiens)",
    "labelValue": "met"
  },
  {
    "compound": "CCn1c(C2CC2)nc2ccc(-n3ccc(OCc4ccc(F)cc4)cc3=O)cc21",
    "testedSystem": "human MCH receptor 1 (MCHR1) (Homo sapiens)",
    "labelValue": "not met"
  },
  {
    "compound": "Cc1c(C2CC2)nc2ccc(-n3ccc(OCc4ccccc4)cc3=O)cn12",
    "testedSystem": "human MCH receptor 1 (MCHR1) (Homo sapiens)",
    "labelValue": "met"
  },
  {
    "compound": "Cc1c(C2CC2)nc2ccc(-n3ccc(OCc4ccc(C(F)(F)F)s4)cc3=O)cn12",
    "testedSystem": "human MCH receptor 1 (MCHR1) (Homo sapiens)",
    "labelValue": "met"
  },
  {
    "compound": "Cn1c(C2CC2)nc2ccc(-n3ccc(OCc4ccc(Cl)c(F)c4)cc3=O)cc21",
    "testedSystem": "human MCH receptor 1 (MCHR1) (Homo sapiens)",
    "labelValue": "met"
  },
  {
    "compound": "Cc1c(C2CC2)nc2ccc(-n3ccc(OCc4ccc(F)c(F)c4)cc3=O)cn12",
    "testedSystem": "human MCH receptor 1 (MCHR1) (Homo sapiens)",
    "labelValue": "met"
  },
  {
    "compound": "Cn1c(C2CC2C#N)nc2ccc(-n3ccc(OCc4ccc(Cl)cc4)cc3=O)cc21 (centres unmarked) [Example 237, hydrochloride]",
    "testedSystem": "human MCH receptor 1 (MCHR1) (Homo sapiens)",
    "labelValue": "met"
  },
  {
    "compound": "Cc1nc2ccc(-n3ccc(OCc4ccc(Cl)s4)cc3=O)cn2c1C",
    "testedSystem": "human MCH receptor 1 (MCHR1) (Homo sapiens)",
    "labelValue": "not met"
  },
  {
    "compound": "Cn1c(C2CC2)nc2ccc(-n3ccc(OCc4ccc(Br)cn4)cc3=O)cc21",
    "testedSystem": "human MCH receptor 1 (MCHR1) (Homo sapiens)",
    "labelValue": "met"
  },
  {
    "compound": "Cn1c(C2CC2)nc2ccc(-n3ccc(OCc4ccc(C(F)(F)F)s4)cc3=O)cc21",
    "testedSystem": "human MCH receptor 1 (MCHR1) (Homo sapiens)",
    "labelValue": "met"
  },
  {
    "compound": "CCc1nc2ccc(-n3ccc(OCc4ccccc4)cc3=O)cc2n1C",
    "testedSystem": "human MCH receptor 1 (MCHR1) (Homo sapiens)",
    "labelValue": "not met"
  },
  {
    "compound": "Cc1c(C2CC2)nc2ccc(-n3ccc(OCc4ccc(C(F)F)s4)cc3=O)cn12",
    "testedSystem": "human MCH receptor 1 (MCHR1) (Homo sapiens)",
    "labelValue": "met"
  },
  {
    "compound": "Cc1ocnc1-c1nc2ccc(-n3ccc(OCc4ccc(F)cc4)cc3=O)cc2n1C",
    "testedSystem": "human MCH receptor 1 (MCHR1) (Homo sapiens)",
    "labelValue": "not met"
  },
  {
    "compound": "Cc1c(C2CC2)nc2ccc(-n3ccc(OCc4ccc(F)s4)cc3=O)cn12",
    "testedSystem": "human MCH receptor 1 (MCHR1) (Homo sapiens)",
    "labelValue": "not met"
  },
  {
    "compound": "Cc1c(C2CC2)nc2ccc(-n3ccc(OCc4nc(Br)cs4)cc3=O)cn12",
    "testedSystem": "human MCH receptor 1 (MCHR1) (Homo sapiens)",
    "labelValue": "met"
  }
]

All figures here come from patent US9365540B2.
